The reported numbers originate from paper PMC4738285.

Measurement Type: pIC50
Value format note: pIC50 is -log10 of concentration (mol/L); just state the number.

Observed pIC50 on Hsp70 (Homo sapiens), entry Nc1ccc2c[n+]3ccccc3cc2c1 , equals 4.35

Observed pIC50 on Hsp70 (Homo sapiens), entry CSc1ccc2c[n+]3ccccc3cc2c1 , equals 2.98

Observed pIC50 on Hsp70 (Homo sapiens), entry c1cc[n+]2cc3ccc(N4CCCC4)cc3cc2c1 , equals 3.90

====

# Target Desc: Hsp70 (Homo sapiens, UniProt P0DMV8)
# Sequence (P0DMV8 whole entry): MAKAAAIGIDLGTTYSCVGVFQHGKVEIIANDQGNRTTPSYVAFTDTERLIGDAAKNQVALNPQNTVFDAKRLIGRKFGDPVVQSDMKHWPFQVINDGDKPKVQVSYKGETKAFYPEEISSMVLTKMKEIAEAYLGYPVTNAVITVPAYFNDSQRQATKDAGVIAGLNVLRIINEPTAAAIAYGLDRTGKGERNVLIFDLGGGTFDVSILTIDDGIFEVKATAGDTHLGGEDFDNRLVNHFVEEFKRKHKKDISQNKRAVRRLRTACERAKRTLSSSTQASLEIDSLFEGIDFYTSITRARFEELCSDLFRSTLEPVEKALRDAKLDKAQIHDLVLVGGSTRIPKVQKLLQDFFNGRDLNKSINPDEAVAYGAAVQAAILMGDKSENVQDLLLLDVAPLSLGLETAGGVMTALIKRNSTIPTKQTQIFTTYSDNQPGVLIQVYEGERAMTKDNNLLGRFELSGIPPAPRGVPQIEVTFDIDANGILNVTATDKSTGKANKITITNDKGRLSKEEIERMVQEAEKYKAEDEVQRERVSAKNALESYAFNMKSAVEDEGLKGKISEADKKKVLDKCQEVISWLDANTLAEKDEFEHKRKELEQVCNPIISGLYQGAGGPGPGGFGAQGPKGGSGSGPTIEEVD
Measurement Type: pKd
Value format note: pKd is -log10 of concentration (mol/L); just state the number.

Short answer for Nc1ccc2c[n+]3ccccc3cc2c1 [Compound 1] : pKd was 5.25

====

# Tested on: SH-SY5Y
# Protocol Summary: cells
# Type: cell-based
# Run Conditions: Homo sapiens, 48 h, read-out: EC50 value
Measurement Type: EC50 (µM)
Express it in µM; write the number only.

Observed EC50 on SH-SY5Y, entry CSc1ccc2c[n+]3ccccc3cc2c1 [Compound 3] , equals 70

Observed EC50 on SH-SY5Y, entry Nc1ccc2c[n+]3ccccc3cc2c1 [Compound 1] , equals 58.1
